Target: PDE8 (PDE8A) (Homo sapiens)
Construct: His tag (hexahistidine, pcDNA4/HisMax) (N); made in house
Sequence (O60658 whole entry): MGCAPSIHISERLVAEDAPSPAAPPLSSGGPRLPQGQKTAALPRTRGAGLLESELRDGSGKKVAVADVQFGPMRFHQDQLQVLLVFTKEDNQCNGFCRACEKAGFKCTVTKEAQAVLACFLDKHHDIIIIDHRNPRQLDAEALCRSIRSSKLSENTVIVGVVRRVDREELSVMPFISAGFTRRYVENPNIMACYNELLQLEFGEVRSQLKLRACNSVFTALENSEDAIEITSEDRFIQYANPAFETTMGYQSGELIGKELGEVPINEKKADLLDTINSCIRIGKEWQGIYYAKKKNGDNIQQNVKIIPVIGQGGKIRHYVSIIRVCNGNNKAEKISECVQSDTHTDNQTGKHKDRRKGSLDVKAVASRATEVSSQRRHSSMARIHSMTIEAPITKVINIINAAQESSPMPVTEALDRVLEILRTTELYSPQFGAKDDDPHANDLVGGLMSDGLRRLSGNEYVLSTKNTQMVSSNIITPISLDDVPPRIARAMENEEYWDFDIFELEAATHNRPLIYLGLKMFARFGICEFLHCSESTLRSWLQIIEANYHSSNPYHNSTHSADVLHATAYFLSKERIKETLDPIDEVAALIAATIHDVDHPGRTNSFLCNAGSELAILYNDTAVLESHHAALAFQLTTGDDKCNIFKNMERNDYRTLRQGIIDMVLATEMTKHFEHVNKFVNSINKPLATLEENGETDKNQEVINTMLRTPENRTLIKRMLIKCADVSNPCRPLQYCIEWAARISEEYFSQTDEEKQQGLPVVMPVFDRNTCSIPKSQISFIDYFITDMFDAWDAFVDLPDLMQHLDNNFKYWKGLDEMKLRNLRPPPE
Assay: PDE assay, recombinant human PDE8A
Assay type: biochemical
Settings: substrate about 4.8 nM [3H]-cAMP and 0.1 μM cAMP
quantity kind: IC50

Task item: Returns the measured IC50 for the input compound. Input: `COc1ccc(-c2cc(N3CCCC3)nc(/C=C/c3nc(-n4ccnc4)c4ccccc4n3)n2)cc1OC`
Reply: > 1 µM

###

Biological target: PDE6 (Bos taurus, UniProt P11541+P23439)
Construct: tissue Tokyo Shibaura Zoki
Sequence (P11541 2-856 limits assumed): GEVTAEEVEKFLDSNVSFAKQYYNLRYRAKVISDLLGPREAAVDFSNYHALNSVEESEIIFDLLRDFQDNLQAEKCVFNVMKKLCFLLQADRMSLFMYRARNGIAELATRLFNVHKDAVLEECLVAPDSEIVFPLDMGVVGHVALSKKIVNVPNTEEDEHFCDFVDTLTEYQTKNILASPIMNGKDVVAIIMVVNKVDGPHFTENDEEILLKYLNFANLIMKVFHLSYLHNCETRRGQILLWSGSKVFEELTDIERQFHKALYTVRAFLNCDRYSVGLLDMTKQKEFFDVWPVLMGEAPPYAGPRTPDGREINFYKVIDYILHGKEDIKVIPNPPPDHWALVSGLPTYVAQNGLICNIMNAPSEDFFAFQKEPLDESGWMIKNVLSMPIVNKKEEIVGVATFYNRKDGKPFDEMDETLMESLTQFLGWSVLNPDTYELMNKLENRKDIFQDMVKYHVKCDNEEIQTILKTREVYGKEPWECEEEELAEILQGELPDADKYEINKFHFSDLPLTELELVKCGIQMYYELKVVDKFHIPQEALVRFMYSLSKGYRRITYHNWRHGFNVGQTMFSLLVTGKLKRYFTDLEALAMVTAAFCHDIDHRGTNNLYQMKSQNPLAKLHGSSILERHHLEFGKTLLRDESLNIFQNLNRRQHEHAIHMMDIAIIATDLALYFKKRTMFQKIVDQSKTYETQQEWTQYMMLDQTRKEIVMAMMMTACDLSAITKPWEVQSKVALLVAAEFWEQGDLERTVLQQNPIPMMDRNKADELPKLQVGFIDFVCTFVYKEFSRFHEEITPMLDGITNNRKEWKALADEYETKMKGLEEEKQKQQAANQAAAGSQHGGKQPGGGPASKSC
Sequence (P23439 2-850 limits assumed): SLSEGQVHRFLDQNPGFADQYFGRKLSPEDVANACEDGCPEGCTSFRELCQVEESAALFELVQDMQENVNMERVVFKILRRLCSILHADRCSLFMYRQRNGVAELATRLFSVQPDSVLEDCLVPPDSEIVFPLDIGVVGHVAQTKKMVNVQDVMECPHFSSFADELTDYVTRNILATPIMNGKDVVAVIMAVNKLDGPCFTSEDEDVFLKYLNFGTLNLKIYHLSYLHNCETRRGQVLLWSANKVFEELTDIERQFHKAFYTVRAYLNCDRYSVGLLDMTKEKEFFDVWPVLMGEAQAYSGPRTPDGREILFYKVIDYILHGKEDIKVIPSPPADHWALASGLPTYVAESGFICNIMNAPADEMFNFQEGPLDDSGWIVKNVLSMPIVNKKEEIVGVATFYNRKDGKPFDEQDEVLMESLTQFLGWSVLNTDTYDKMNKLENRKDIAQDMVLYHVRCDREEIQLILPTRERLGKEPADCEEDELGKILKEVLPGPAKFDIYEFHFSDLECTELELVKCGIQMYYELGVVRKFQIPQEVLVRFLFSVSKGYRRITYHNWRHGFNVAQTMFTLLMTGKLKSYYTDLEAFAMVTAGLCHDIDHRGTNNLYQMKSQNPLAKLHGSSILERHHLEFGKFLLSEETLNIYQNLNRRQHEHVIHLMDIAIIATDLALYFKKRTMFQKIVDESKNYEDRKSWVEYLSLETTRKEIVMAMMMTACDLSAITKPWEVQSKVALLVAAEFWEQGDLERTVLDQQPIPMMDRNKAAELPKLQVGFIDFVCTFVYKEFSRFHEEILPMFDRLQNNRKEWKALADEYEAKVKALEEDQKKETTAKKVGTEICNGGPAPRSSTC
Assay: PDE assay, trypsin-activated PDE6 from bovine retina
Conditions: substrate about 12 nM [3H]-cGMP and 10 μM cGMP
quantity kind: IC50 (nM)
Your answer is read as nM, so omit the unit and give the number.

Task item: Returns the measured IC50 for the input compound. Input: COc1ccc(-c2cc(N3CCCC3)nc(/C=C/c3nc(-n4ccnc4)c4ccccc4n3)n2)cc1OC [Compound A]
Reply: 290

Reference source for all entries: patent US8338420B1
